Entries and their pKd
- Measurement target: YiaC (Escherichia coli)
- Construct: recombinant, pET28a vector, expressed in E. coli BL21 (λDE3), purified on HisPur Ni-NTA resin
- Sequence (P37664 whole entry): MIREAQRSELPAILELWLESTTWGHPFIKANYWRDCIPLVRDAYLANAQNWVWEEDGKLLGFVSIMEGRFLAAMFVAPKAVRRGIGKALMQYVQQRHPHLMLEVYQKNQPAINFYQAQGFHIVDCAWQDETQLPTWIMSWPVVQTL
- Protocol notes: Isothermal titration calorimetry (MicroCal PEAQ-ITC) with acyl-CoA (750 uM in syringe) titrated into YiaC (75 uM in cell) at 25.1 °C according to the data sheet; the methods text gives 500 uM, 50 uM and 37 °C.
- Assay conditions: n = 3
- Experimental: This method was described previously. […] The volume of the first injection was 0.5 μl of 500 μM actyl-CoA (or actylated peptides), and the following 18 injections were 2.0 μl. The binding isotherm was fit with the Origin 8.0 software (OriginLab). Each group had three biological repetitions.
pKd: −log10 of the molar value.
Readout type: pKd

{"columns": ["Compound", "Measurement target", "Readout type", "Observed result"],
 "data": [
  ["CC(=O)SCCNC(=O)CCNC(=O)[C@H](O)C(C)(C)COP(=O)(O)OP(=O)(O)OC[C@H]1O[C@@H](n2cnc3c(N)ncnc32)[C@H](O)[C@@H]1OP(=O)(O)O", "YiaC (Escherichia coli)", "pKd", 5.25],
  ["CC(O)C(=O)SCCNC(=O)CCNC(=O)[C@H](O)C(C)(C)COP(=O)(O)OP(=O)(O)OC[C@H]1O[C@@H](n2cnc3c(N)ncnc32)[C@H](O)[C@@H]1OP(=O)(O)O (some centres unmarked)", "YiaC (Escherichia coli)", "pKd", 5.17]
]}

Values were extracted from paper PMC9636275.
